- Target System: T1, human cMET-Fc fusion protein (extracellular domain of human cMET fused to human Fc) (human, UniProt P08581 25-932)
- T1 construct: Mature cMET is cleaved into alpha and beta subunits; also called hMET-Fc; hMet-Fc
- T1 sequence (P08581 25-932): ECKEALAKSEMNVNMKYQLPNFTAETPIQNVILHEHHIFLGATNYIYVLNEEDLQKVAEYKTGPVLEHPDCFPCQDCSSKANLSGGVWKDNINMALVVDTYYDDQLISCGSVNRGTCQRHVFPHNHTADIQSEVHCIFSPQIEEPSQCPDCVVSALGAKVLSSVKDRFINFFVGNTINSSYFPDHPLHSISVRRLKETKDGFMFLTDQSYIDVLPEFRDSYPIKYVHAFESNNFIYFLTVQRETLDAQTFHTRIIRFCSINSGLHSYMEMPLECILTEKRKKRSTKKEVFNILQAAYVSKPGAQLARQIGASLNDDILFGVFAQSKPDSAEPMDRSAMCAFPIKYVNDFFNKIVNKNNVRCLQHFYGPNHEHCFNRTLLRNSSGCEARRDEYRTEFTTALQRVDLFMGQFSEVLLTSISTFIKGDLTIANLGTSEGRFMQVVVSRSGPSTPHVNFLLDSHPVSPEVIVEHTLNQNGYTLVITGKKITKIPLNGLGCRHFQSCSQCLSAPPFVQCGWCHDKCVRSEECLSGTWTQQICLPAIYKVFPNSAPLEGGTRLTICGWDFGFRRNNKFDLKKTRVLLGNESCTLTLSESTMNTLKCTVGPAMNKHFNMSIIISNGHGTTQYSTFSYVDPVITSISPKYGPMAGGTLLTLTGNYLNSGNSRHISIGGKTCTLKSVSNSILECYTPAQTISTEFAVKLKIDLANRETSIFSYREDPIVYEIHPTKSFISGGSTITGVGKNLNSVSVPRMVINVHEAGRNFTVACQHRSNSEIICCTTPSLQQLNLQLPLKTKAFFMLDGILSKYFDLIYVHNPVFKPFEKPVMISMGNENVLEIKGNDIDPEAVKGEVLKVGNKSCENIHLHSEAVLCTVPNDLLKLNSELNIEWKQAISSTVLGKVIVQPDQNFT
- Measurement Description: SPR with hMet-Fc
# Kd annotations
Answers without a unit are incomplete; give the number and then its unit.

Example results:
Binder	Observed Measurement
F6AP8E2 (antibody, V domains shown, Mouse monoclonal antibody) VH: EVQLQQSGAELVRPGALVKLSCKASGFNINDYFMHWVKQRPEQGLEWIGWIDPENGNTIYDPKFQGKASITADTSSNTAYLQLSSLTSEDTAVYYCARGGNYLRESYYYAMDYWGQGTSVTVSS VL: DIVMTQSPKSMSMSVGERVTLSCKASENVGTYVSWYQQKPDQSPKLLIYGASNRYTGVPDRFTGSGSATDFTLTISSVQAEDLADYHCGQSYSYPLTFGAGTKLELKR	0.16 nM
ABF46 (antibody, V domains shown) VH: EVKLVESGGGLVQPGGSLRLSCATSGFTFTDYYMSWVRQPPGKALEWLGFIRNKANGYTTEYSASVKGRFTISRDNSQSILYLQMDTLRAEDSATYYCARDNWFAYWGQGTLVTVSA VL: DILMTQSPSSLTVSAGEKVTMSCKSSQSLLASGNQNNYLAWHQQKPGRSPKMLIIWASTRVSGVPDRFIGSGSGTDFTLTINSVQAEDLAVYYCQQSYSAPLTFGAGTKLELK	0.7 nM
F6B1P3D12 (mouse monoclonal anti-cMET antibody) (antibody, V domains shown, Mouse hybridoma antibody (ATCC PTA-125826); also called Mouse P3D12) VH: QVQLQQSGAELAKPGASVKMSCRASGYTFTSYWMHWVKQRPGQGLDWIGYIKPSTDNTEYNQKFKDKATLTADKSSSTAYMQLSSLTSEDSAVYYCARSYGNYPLMDYWGQGTSVTVSS VL: QIVLTQSPAIMSASPGEKVTLTCSASSSVTSNYLYWYQQKPGSSPKLWIYSTSNLASGVPARFSGSGSGTSYSLTISSMEAEDAASYFCHQWSSYPPTFGSGTKLEIKR	0.75 nM
F6B1P1E2 (antibody, V domains shown, Mouse monoclonal antibody) VH: QVQLQQSGAELAKPGASVKMSCKASGYTFTSYWMHWVKQRPGQGLEWIGYINPSTDYTEYNQKFKDKATLTADKSSTTAYMQLSSLTSEDSAVYYCVRSYGNYPLMDYWGQGTSVTVSS VL: QIVLTQSPAIMSASPGEKVTLTCSASSSVSSNYLYWYHQKPGSSPKLWIYSTSNLASGVPVRFSGSGSGTSYSLTISSMEAEDAASYFCHQWSSYPPTFGSGTKLEIKR	0.89 nM

Now turn to the next binder.
What measured Kd goes with F6BP2D4 (antibody, V domains shown, Mouse monoclonal antibody) VH: QVQLQQSGAELAKPGASVKMSCKASGYTFTSYWMHWVKQRPGQGLEWIGYINPSTDYIEYNQKFKDKATLTAGKSSSTAYMQLSSLTSEDSAVYYCARSYGNFPLMDYWGQGTSVTVSS VL: QIVLTQSPAIMSASPGEKVTLTCSASSSVSSNYLYWYQQKPGSSPKLWIYSTSNLASGVPVRFSGSGSGTSYSLTISSMEAEDAASYFCHQWSSYPPTFGSGTKLEIKR ?
0.48 nM
